Hey, just so you know, these numbers are from PubChem BioAssay AID328.

Test system: BDF1 mice, P388 leukemia ip, median survival T/C
Measurement protocol: NCI In Vivo Anticancer Drug Screen. Data for tumor model P388 Leukemia (intraperitoneal) in B6D2F1 (BDF1) mice
Measurement context: endpoint: median survival time; dose: 200.0 mg/kg/injection; schedule: Q01DX009 (ip); vehicle: saline
Inconclusive results and toxic doses are left out. Rule for the calls: active = survival T/C of 150% or more; inactive = T/C below 125% in these data.
Respond with a class label; see 1 (yes) for active, 0 (no) for inactive

## Input For O=S(=O)(O)c1ccc(O)cc1 , what call appears in the results of this test?
## Output 0 (no)

## Input For O=C(c1ccccc1)N1CCC(CCO)C(O)C1Cc1c[nH]c2ccccc12 (configuration not stated) , what call appears in the results of this test?
## Output 0 (no)

## Input For COc1cc2cc(-c3cc(OC)c(OC)c(OC)c3)c3c(c2cc1OC)CNC3=O , what call appears in the results of this test?
## Output 0 (no)

## Input For O=C1OC(=O)C2C3C=CC(C4C=CC43)C12 (configuration not stated) , what call appears in the results of this test?
## Output 0 (no)

## Input For CCOC(=O)CCN1CCCC1 , what call appears in the results of this test?
## Output 0 (no)

## Input For OC1OCCOC1O (configuration not stated) , what call appears in the results of this test?
## Output 1 (yes)

## Input For CCN1c2ccccc2CC(CCCN(C)C)(C(N)=O)c2ccccc21 (configuration not stated) , what call appears in the results of this test?
## Output 0 (no)

---

System: BDF1 mice, P388 leukemia ip, median survival T/C
Measurement protocol: NCI In Vivo Anticancer Drug Screen. Data for tumor model P388 Leukemia (intraperitoneal) in B6D2F1 (BDF1) mice
Measurement context: endpoint: median survival time; dose: 100.0 mg/kg/injection; schedule: Q04DX003 (ip); vehicle: water; higher = longer survival
Toxic doses and inconclusive results are not listed.
For each record, write down the corresponding T/C.

## Input Quick one: T/C for O=C1c2ccccc2C(=O)N1c1cc(OCc2ccccc2)cc(OCc2ccccc2)c1 ?
## Output 99 % of control

## Input Quick one: T/C for O=C(NCCCl)NC1C(O)OC(CO)C(O)C1O (stereo not drawn) ?
## Output 86 % of control

## Input Quick one: T/C for COC1(c2ccc(Br)cc2)OC1(C)C (stereo not drawn) ?
## Output 86 % of control

## Input Quick one: T/C for O=C1NC(c2cccs2)(c2cccs2)C(=O)N1Cl ?
## Output 95 % of control

## Input Quick one: T/C for CCCCN(CCCC)C(=O)C1C=C2c3cccc4[nH]cc(c34)CC2N(C)C1 (stereo not drawn) ?
## Output 105 % of control

## Input Quick one: T/C for O=C(N=c1cc(-c2ccc(Cl)cc2)ss1)C(Cc1ccccc1)N1C(=O)c2ccccc2C1=O (stereo not drawn) ?
## Output 107 % of control

## Input Quick one: T/C for COc1cc(OC)cc(C(=O)N2CC2)c1 ?
## Output 107 % of control

## Input Quick one: T/C for NCCCn1c2ccccc2c2cnccc21 ?
## Output 99 % of control

## Input Quick one: T/C for Clc1ccc(-c2cc(=[N+]3CCC4(CC3)SSC3(CC[N+](=c5cc(-c6ccc(Cl)cc6)ss5)CC3)S4)ss2)cc1 (stereo not drawn) ?
## Output 92 % of control

## Input Quick one: T/C for O=C(O)c1occ(Cl)c1Cl ?
## Output 104 % of control

## Input Quick one: T/C for OCCNCc1ccccc1 ?
## Output 100 % of control

## Input Quick one: T/C for CC(C)C(=O)c1ccc(-c2ccccc2)cc1 ?
## Output 97 % of control

## Input Quick one: T/C for CC1CCC2(C)CCC3(C)C(=CCC4C5(C)CCC(O)C(C)(C)C5CCC43C)C2C1C (stereo not drawn) ?
## Output 90 % of control

---

Tested on: BDF1 mice, P388 leukemia ip, median survival T/C
Measurement protocol: NCI In Vivo Anticancer Drug Screen. Data for tumor model P388 Leukemia (intraperitoneal) in B6D2F1 (BDF1) mice
Measurement context: endpoint: median survival time; dose: 50.0 mg/kg/injection; schedule: Q04DX003 (ip); vehicle: saline sonified; higher = longer survival
Toxic doses and inconclusive results are not listed.
Experimental readout: T/C

## Input Quick one: T/C for Cc1ccc(N2CCN(CCCN3CCN(c4ccc(Cl)cc4)CC3)CC2)cc1 ?
## Output 100 % of control

## Input Quick one: T/C for CCCCCCCC(=O)[O][Hg][CH2]C1COC([CH2][Hg][O]C(=O)CCCCCCC)CO1 (configuration not stated) ?
## Output 116 % of control

## Input Quick one: T/C for CS(=O)(=O)n1c(CBr)nc2ccccc21 ?
## Output 118 % of control

## Input Quick one: T/C for O=C(O)CC[n+]1c(/C=C/c2cc(Br)c(O)c(Br)c2)sc2ccccc21 ?
## Output 100 % of control

## Input Quick one: T/C for CCOC(=O)C(C#N)C(C(C)=O)C(=O)OCC (configuration not stated) ?
## Output 100 % of control

## Input Quick one: T/C for CCCCOCCOc1ccc(C(=O)OC)cc1 ?
## Output 100 % of control

## Input Quick one: T/C for O=C(Nc1ccccc1F)Nc1cc(Cl)ccc1Cl ?
## Output 90 % of control

---

System: BDF1 mice, P388 leukemia ip, median survival T/C
Measurement protocol: NCI In Vivo Anticancer Drug Screen. Data for tumor model P388 Leukemia (intraperitoneal) in B6D2F1 (BDF1) mice
Measurement context: endpoint: median survival time; dose: 100.0 mg/kg/injection; schedule: Q01DX001 (ip); vehicle: Klucel (hydroxypropylcellulose) (HPC); higher = longer survival
Protocol: The antitumor activity of compounds was measured in mice bearing transplantable tumors. Survival or tumor size were measured and the results are expressed as the measurement made in the treated group (T) divided by the measurement made in the vehicle treated control group (C). The tumor model used in this assay is P388 Leukemia (intraperitoneal) in B6D2F1 (BDF1) mice
Toxic doses and inconclusive results are not listed.
Experimental readout: T/C

## Input Param readout= T/C; system= BDF1 mice, P388 leukemia ip, median survival T/C; entry= CC(=O)C(=O)C(C)=O ; returns value.
## Output 105 % of control

## Input Param readout= T/C; system= BDF1 mice, P388 leukemia ip, median survival T/C; entry= Cc1ccc(C)c(Nc2cc(=O)[nH]c(=O)[nH]2)c1 ; returns value.
## Output 98 % of control

## Input Param readout= T/C; system= BDF1 mice, P388 leukemia ip, median survival T/C; entry= CN(C)C(=O)c1cccc(COc2ccc([N+](=O)[O-])cc2Cl)c1 ; returns value.
## Output 109 % of control

## Input Param readout= T/C; system= BDF1 mice, P388 leukemia ip, median survival T/C; entry= O=C1CSC(=S)N1c1ccco1 ; returns value.
## Output 95 % of control

## Input Param readout= T/C; system= BDF1 mice, P388 leukemia ip, median survival T/C; entry= C=CCN(CC=C)c1ccc(N(CC)CC)cc1 ; returns value.
## Output 87 % of control

## Input Param readout= T/C; system= BDF1 mice, P388 leukemia ip, median survival T/C; entry= CC(Cc1ccc2c(c1)OCO2)C(C)Cc1ccc2c(c1)OCO2 (stereo unspecified) ; returns value.
## Output 100 % of control

## Input Param readout= T/C; system= BDF1 mice, P388 leukemia ip, median survival T/C; entry= COc1ccc(-n2c(=O)c(N=Nc3ccccc3OC)c(O)n(-c3ccccc3C)c2=S)cc1 ; returns value.
## Output 111 % of control

## Input Param readout= T/C; system= BDF1 mice, P388 leukemia ip, median survival T/C; entry= Cc1ccc(N=C(c2ccccc2)c2ccc([N+](=O)[O-])cc2)cc1 ; returns value.
## Output 108 % of control

## Input Param readout= T/C; system= BDF1 mice, P388 leukemia ip, median survival T/C; entry= O=C1COc2ccccc2N1 ; returns value.
## Output 113 % of control

## Input Param readout= T/C; system= BDF1 mice, P388 leukemia ip, median survival T/C; entry= CCOC(=O)c1ccc(NCc2cccc([N+](=O)[O-])c2)cc1 ; returns value.
## Output 115 % of control

## Input Param readout= T/C; system= BDF1 mice, P388 leukemia ip, median survival T/C; entry= CCOc1ccc2nc(N)sc2c1 ; returns value.
## Output 86 % of control

---

For each record, write down the corresponding T/C.
Tested on: BDF1 mice, P388 leukemia ip, median survival T/C
Measurement protocol: NCI In Vivo Anticancer Drug Screen. Data for tumor model P388 Leukemia (intraperitoneal) in B6D2F1 (BDF1) mice
Measurement context: endpoint: median survival time; dose: 75.0 mg/kg/injection; schedule: Q01DX009 (ip); vehicle: saline; higher = longer survival
Inconclusive results and toxic doses are left out.

## Input Quick one: T/C for O=C(O)CC(O)(CC(=O)O)C(=O)O.[Ga] ?
## Output 114 % of control

## Input Quick one: T/C for Nc1ccc(CCCCc2ccccc2)cc1 ?
## Output 109 % of control

## Input Quick one: T/C for CNC/C(C)=C/Br ?
## Output 95 % of control

## Input Quick one: T/C for Cc1ccc(C(=O)C[S+](C)C)c(C)c1 ?
## Output 100 % of control

## Input Quick one: T/C for COc1ccc(Cc2nccc3c(OC)c(OC)ccc23)cc1OC ?
## Output 119 % of control
